Taken from the supplement of paper PMC7595190.

Kindly state CellTox Green cytotoxicity fluorescence for each of the entries shown.
# System: CMK
# procedure.details: CellTox Green cytotoxicity fluorescence relative to DMSO vehicle (fold of vehicle RFU); higher = more cell death (loss of membrane integrity), active = 2 or more
# condition.parameters: 0.01 µM; 72 h
Counter-ions that a name gives are not always drawn.
Answers are plain numbers.

# molecule, test.target, CellTox Green cytotoxicity fluorescence
data = [
    ("CCCCCCCCCCCC1=C(O)C(=O)C=C(O)C1=O", "CMK", 1.09),
]

Please state, for each entry, its recorded CellTox Green cytotoxicity fluorescence.
1. CCOC(=O)c1[nH]c2cc(Cl)ccc2c1C(C(=O)NC(C)(C)C)N(C=O)Cc1ccc(Cl)cc1 (stereo not drawn)
2. Cc1cccc(CC(=O)N2CCc3c2ccc(-c2cn(C)c4ncnc(N)c24)c3F)n1
3. C=CC(=O)N1CCN(C(=O)CNc2cc(I)c(Cl)cc2O)CC1 [K-Ras(G12C) inhibitor 12]
4. c1ccc2c(CCNc3ccc(Nc4ccncc4)cc3)c[nH]c2c1

// result
1. 1
2. 0.966
3. 0.963
4. 0.987

Please state, for each entry, its recorded CellTox Green cytotoxicity fluorescence.
1. COc1cc(C(=O)N2CCC(N3CCN(C)CC3)CC2)ccc1Nc1ncc2c(n1)N(C)c1ccccc1C(=O)N2C
2. CC[C@@]1(O)C(=O)OCc2c1cc1n(c2=O)Cc2cc3cc(O)ccc3nc2-1 [(S)-10-Hydroxycamptothecin]
3. COc1nc(OCc2cccc(-c3ccccc3)c2C)ccc1CNCCNC(C)=O
4. CCC(CC)n1ccc2c(C(=O)NCc3c(C)cc(C)[nH]c3=O)cc(C#N)cc21
5. C=CCc1cccc(/C=N/NC(=O)CN2CCN(Cc3ccccc3)CC2)c1O
6. COc1c/c(=C2\C=c3ccccc3=N2)[nH]/c1=C\c1[nH]c(C)cc1C [Obatoclax Mesylate]

// result
0.891
1.19
0.968
0.8
0.921
0.894

Please state, for each entry, its recorded CellTox Green cytotoxicity fluorescence.
1. CN1CCN(CCCNc2ncc(Cl)c(-c3cc4c(C(=O)NC5CC5)cccc4s3)n2)CC1
2. O=C1NC(=NCc2cccs2)S/C1=C\c1ccc2ncccc2c1
3. N#Cc1ccc(-c2c(-c3ncn[nH]3)sc(N3CCOCC3)c2C#N)c(F)c1
4. CN[C@@H](C)C(=O)N[C@H](C(=O)N1CCC[C@H]1C(=O)Nc1snnc1-c1ccccc1)C1CCCCC1
5. CCCC[C@@H](C=O)NC(=O)[C@H](CC(C)C)NC(=O)OCc1ccccc1
6. COC(=O)[C@H](CCSC)NC(=O)c1ccc(NC[C@@H](N)CS)cc1-c1ccccc1

// result
1. 0.953
2. 1.07
3. 1.04
4. 0.983
5. 0.961
6. 0.941

// query Suppose we examine the molecule CCOc1cc(C(C)(C)C)ccc1C1=N[C@@](C)(c2ccc(Cl)cc2)[C@@](C)(c2ccc(Cl)cc2)N1C(=O)N1CCN(CCCS(C)(=O)=O)CC1 ; what CellTox Green cytotoxicity fluorescence value has been reported?
// result 1.01

----------
# System: Kasumi-1
# procedure.details: CellTox Green cytotoxicity fluorescence relative to DMSO vehicle (fold of vehicle RFU); higher = more cell death (loss of membrane integrity), active = 2 or more
# condition.parameters: 1 µM; 24 h
measurement.name: CellTox Green cytotoxicity fluorescence
Numbers only.

# compound, test.target, result.value
data = [
    ("COc1nc(OCc2cccc(-c3ccccc3)c2C)ccc1CNCCNC(C)=O", "Kasumi-1", 0.978),
    ("CC(C)CC(NC(=O)C(Cc1ccccc1)CC(O)C(Cc1ccccc1)NC(=O)OC(C)(C)C)C(=O)NC(Cc1ccccc1)C(N)=O (stereo not drawn)", "Kasumi-1", 0.912),
    ("CC(C)c1ccccc1Cc1cc(C(=O)Nc2ccc(S(=O)(=O)c3ccccc3C(C)(C)C)cc2)c(O)c(O)c1O", "Kasumi-1", 0.94),
]

Please state, for each entry, its recorded CellTox Green cytotoxicity fluorescence.
1. FC(F)(F)c1ccc(CNc2ccc(Cc3c[nH]c4ncc(Cl)cc34)cn2)cn1
2. CCOc1cc(C(C)(C)C)ccc1C1=N[C@@](C)(c2ccc(Cl)cc2)[C@@](C)(c2ccc(Cl)cc2)N1C(=O)N1CCN(CCCS(C)(=O)=O)CC1
3. CCO[C@@H]1OC(=O)C[C@@H]1NC(=O)[C@@H]1CCCN1C(=O)[C@@H](NC(=O)c1ccc(N)c(Cl)c1)C(C)(C)C
4. COC(=O)[C@H](CCSC)NC(=O)c1ccc(NC[C@@H](N)CS)cc1-c1ccccc1
5. N#Cc1ccc(-c2c(-c3ncn[nH]3)sc(N3CCOCC3)c2C#N)c(F)c1

// result
1. 1.04
2. 1.03
3. 0.997
4. 0.941
5. 0.985

Please state, for each entry, its recorded CellTox Green cytotoxicity fluorescence.
1. CNC(=O)c1ccccc1Nc1cc(Nc2ccc(N3CCOCC3)cc2OC)ncc1C(F)(F)F
2. Cc1cccc(CC(=O)N2CCc3c2ccc(-c2cn(C)c4ncnc(N)c24)c3F)n1
3. CN(C)CCCCC(=O)Nc1ccc(NC(=S)NC(=O)c2ccc(C(C)(C)C)cc2)cc1

// result
[0.928, 1.03, 0.958]

----------
# System: Kasumi-1
# procedure.details: CellTox Green cytotoxicity fluorescence relative to DMSO vehicle (fold of vehicle RFU); higher = more cell death (loss of membrane integrity), active = 2 or more
# condition.parameters: 1 µM; 24 h
Counter-ions that a name gives are not always drawn.
Kindly state CellTox Green cytotoxicity fluorescence for each of the entries shown.
One number for each entry.

Worked cases, answers included:
# compound, test.target, result.value
rows = [
    ("O=C1C(=O)N(Cc2ccc(Cl)c(Cl)c2)c2ccccc21", "Kasumi-1", 1.02),
    ("COc1c/c(=C2\\C=c3ccccc3=N2)[nH]/c1=C\\c1[nH]c(C)cc1C [Obatoclax Mesylate]", "Kasumi-1", 1.17),
    ("O=C(COc1ccc(Cl)cc1)NC1CCC(NC(=O)COc2ccc(Cl)cc2)CC1 (stereo not given)", "Kasumi-1", 0.966),
    ("CCCCC(C=O)NC(=O)C(CC(C)C)NC(=O)C(CC(C)C)NC(C)=O (stereo not given)", "Kasumi-1", 1.03),
]

Please state, for each entry, its recorded CellTox Green cytotoxicity fluorescence.
1. CC(=O)N1c2ccc(-c3ccc(C(=O)O)cc3)cc2[C@H](Nc2ccc(Cl)cc2)C[C@@H]1C
2. CCCC[C@@H](C=O)NC(=O)[C@H](CC(C)C)NC(=O)OCc1ccccc1
3. Nc1cccc2c1C(=O)N(C1CCC(=O)NC1=O)C2=O (stereo not given) [Pomalidomide]
4. CC[C@H](NC(=O)[C@H](C)NC)C(=O)N1C[C@@H](O)C[C@H]1Cc1c(-c2[nH]c3cc(F)ccc3c2C[C@@H]2C[C@H](O)CN2C(=O)[C@H](CC)NC(=O)[C@H](C)NC)[nH]c2cc(F)ccc12
5. CC(C)(C)C[C@@H]1N[C@@H](C(=O)N[C@H]2CC[C@H](O)CC2)[C@H](c2cccc(Cl)c2F)[C@]12C(=O)Nc1cc(Cl)ccc12
6. CNC(=O)c1ccc(Nc2ncc(C(F)(F)F)c(NCc3nccnc3N(C)S(C)(=O)=O)n2)cc1
7. COc1cc(C(=O)O)ccc1NC(=O)[C@@H]1N[C@@H](CC(C)(C)C)[C@](C#N)(c2ccc(Cl)cc2F)[C@H]1c1cccc(Cl)c1F
8. C=CC(=O)N1CCC(Oc2cc3c(Nc4ccc(Cl)c(Cl)c4F)ncnc3cc2OC)CC1

// result
[1.09, 1.01, 1.01, 1.04, 0.906, 0.931, 1.01, 0.994]

Please state, for each entry, its recorded CellTox Green cytotoxicity fluorescence.
1. CC1(C)CC[C@]2(NC(=O)C(C)(F)F)CC[C@]3(C)[C@H](C(=O)C=C4[C@@]5(C)C=C(C#N)C(=O)C(C)(C)[C@@H]5CC[C@]43C)[C@@H]2C1
2. O=C(NS(=O)(=O)c1ccc(Br)s1)c1ccc(Cl)cc1Cl
3. CN(C)CC[C@H](CSc1ccccc1)Nc1ccc(S(=O)(=O)NC(=O)c2ccc(N3CCN(Cc4ccccc4-c4ccc(Cl)cc4)CC3)cc2)cc1[N+](=O)[O-]

// result
1: 1.11; 2: 0.975; 3: 1.44

----------
Kindly state CellTox Green cytotoxicity fluorescence for each of the entries shown.
# Test system: MV4-11
# procedure.details: CellTox Green cytotoxicity fluorescence relative to DMSO vehicle (fold of vehicle RFU); higher = more cell death (loss of membrane integrity), active = 2 or more
# condition.parameters: 1 µM; 24 h
Where a name gives a salt, the structure may show the parent alone.
Numbers only.

# compound, test.target, CellTox Green cytotoxicity fluorescence
rows = [
    ("COc1c/c(=C2\\C=c3ccccc3=N2)[nH]/c1=C\\c1[nH]c(C)cc1C [Obatoclax Mesylate]", "MV4-11", 1.21),
    ("C=CC(=O)N1CCC(Oc2cc3c(Nc4ccc(Cl)c(Cl)c4F)ncnc3cc2OC)CC1", "MV4-11", 1.01),
    ("CC1(C)CC[C@]2(NC(=O)C(C)(F)F)CC[C@]3(C)[C@H](C(=O)C=C4[C@@]5(C)C=C(C#N)C(=O)C(C)(C)[C@@H]5CC[C@]43C)[C@@H]2C1", "MV4-11", 1.23),
    ("CC(C)(C)C[C@@H]1N[C@@H](C(=O)N[C@H]2CC[C@H](O)CC2)[C@H](c2cccc(Cl)c2F)[C@]12C(=O)Nc1cc(Cl)ccc12", "MV4-11", 1.26),
]

Please state, for each entry, its recorded CellTox Green cytotoxicity fluorescence.
1. CC(=NNC(=S)N1CCC1)c1ccccn1
2. C=CC(=O)N1CC(=Cc2ccc([N+](=O)[O-])cc2)C(=O)C(=Cc2ccc([N+](=O)[O-])cc2)C1
3. CCO[C@@H]1OC(=O)C[C@@H]1NC(=O)[C@@H]1CCCN1C(=O)[C@@H](NC(=O)c1ccc(N)c(Cl)c1)C(C)(C)C
4. O=C(NS(=O)(=O)c1ccc(Br)s1)c1ccc(Cl)cc1Cl
5. C/C(=N\NC(=O)c1cccc(S(=O)(=O)N2CCOCC2)c1)c1cc(Cl)ccc1O

// result
1. 1.02
2. 1.68
3. 1
4. 1
5. 0.953
